These measurements were taken from paper PMC9927415.

# Measured Target: FLT1 (Homo sapiens)
# Construct: purchased DiscoverX (KINOMEscan)
# Sequence (P17948 27-1338): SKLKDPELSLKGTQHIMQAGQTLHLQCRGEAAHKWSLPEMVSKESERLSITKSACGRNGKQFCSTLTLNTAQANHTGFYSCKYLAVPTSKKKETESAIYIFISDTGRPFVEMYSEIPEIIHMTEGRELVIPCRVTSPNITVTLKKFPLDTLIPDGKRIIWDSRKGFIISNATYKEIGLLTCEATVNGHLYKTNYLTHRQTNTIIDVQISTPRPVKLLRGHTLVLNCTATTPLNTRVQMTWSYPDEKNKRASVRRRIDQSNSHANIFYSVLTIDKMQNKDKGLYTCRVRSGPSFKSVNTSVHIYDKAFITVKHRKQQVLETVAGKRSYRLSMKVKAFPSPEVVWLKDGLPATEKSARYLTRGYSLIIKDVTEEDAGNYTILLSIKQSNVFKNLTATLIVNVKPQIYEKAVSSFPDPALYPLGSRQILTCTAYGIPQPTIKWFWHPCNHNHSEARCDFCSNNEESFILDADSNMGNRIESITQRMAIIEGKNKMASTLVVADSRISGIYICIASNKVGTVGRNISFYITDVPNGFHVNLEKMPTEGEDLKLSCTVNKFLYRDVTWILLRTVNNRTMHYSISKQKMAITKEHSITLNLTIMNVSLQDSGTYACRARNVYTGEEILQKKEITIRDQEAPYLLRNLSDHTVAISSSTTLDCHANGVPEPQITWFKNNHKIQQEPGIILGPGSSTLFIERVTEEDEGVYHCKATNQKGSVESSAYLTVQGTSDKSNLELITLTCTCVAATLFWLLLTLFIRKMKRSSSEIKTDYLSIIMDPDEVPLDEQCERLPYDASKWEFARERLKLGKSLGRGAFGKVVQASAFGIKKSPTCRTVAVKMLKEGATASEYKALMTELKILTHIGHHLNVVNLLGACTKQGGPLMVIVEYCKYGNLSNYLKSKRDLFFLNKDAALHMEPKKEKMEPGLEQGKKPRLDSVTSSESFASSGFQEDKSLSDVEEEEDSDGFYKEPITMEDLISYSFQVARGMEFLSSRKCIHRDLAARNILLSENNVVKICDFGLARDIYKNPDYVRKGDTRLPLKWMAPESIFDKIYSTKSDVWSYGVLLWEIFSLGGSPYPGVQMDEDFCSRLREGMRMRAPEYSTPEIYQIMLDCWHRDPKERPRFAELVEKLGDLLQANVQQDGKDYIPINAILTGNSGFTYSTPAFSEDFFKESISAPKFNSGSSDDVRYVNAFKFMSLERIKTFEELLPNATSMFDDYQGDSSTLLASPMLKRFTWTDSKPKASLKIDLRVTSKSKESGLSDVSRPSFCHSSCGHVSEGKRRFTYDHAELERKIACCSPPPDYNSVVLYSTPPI
# Test Description: KINOMEscan competitive binding
# Test Context: 10 µM, n=1; kinase FLT1; read-out: Percent inhibition FLT1

| Compound | inhibition at 10 µM |
| --- | --- |
| Fc1cccc(COc2ccc(Nc3ncnc4c3CN(CCN3CCOCC3)CC4)cc2Cl)c1 [Compound 6] | 0% |
| Cc1ccc(O)cc1Nc1ccnc(Nc2cccc(C(N)=O)c2)n1 [Compound 3] | 98.3% |
| c1ccc(COc2cccc(-c3ccnc4[nH]ccc34)c2)cc1 [Compound 9] | 0% |
| COc1cc(Nc2nccc(-c3sc(N)nc3-c3cccc(NC(=O)c4c(F)cccc4F)c3)n2)cc(OC)c1OC [Compound 7] | 99.2% |
| Cc1ccc(O)cc1N(C)c1ccnc(Nc2cccc(S(N)(=O)=O)c2)n1 [Compound 4] | 99.4% |
| Clc1ccc(Nc2ncc(-c3ccccc3)s2)cc1 [Compound 10] | 0% |
| COc1ccc(Nc2nccc(-c3cnn4ncccc34)n2)cc1 [Compound 2] | 99.5% |
| C[C@@H](Oc1cc(-c2cnc3ccccn23)sc1C(N)=O)c1ccccc1Cl [Compound 8] | 70% |
| Nc1ncc2c(-c3ccncc3)c[nH]c2n1 [Compound 11] | 0% |
| CN1CCN(c2ccc(Nc3nccc(-c4cnn5ncccc45)n3)cc2C#N)CC1 [Compound 1] | 99.9% |
